# measured-on: Serine/threonine-protein kinase Chk1 (Homo sapiens)
# assay-setup: at 1 µM
measured-endpoint: inhibition (%)
Write down the numeric answer in % and omit the unit.

Worked set:
{"chemical-string": "CCn1c(-c2nonc2N)nc2c(C#CCN)ncc(OCCCN)c21", "measured-on": "Serine/threonine-protein kinase Chk1 (Homo sapiens)", "display-unit": "%", "inhibition": 0.26}
{"chemical-string": "Nc1nonc1-c1nc2cnccc2n1C1CCCCC1", "measured-on": "Serine/threonine-protein kinase Chk1 (Homo sapiens)", "display-unit": "%", "inhibition": 1.88}
{"chemical-string": "NS(=O)(=O)c1ccc(N/C=C2\\C(=O)Nc3ccc4ncsc4c32)cc1", "measured-on": "Serine/threonine-protein kinase Chk1 (Homo sapiens)", "display-unit": "%", "inhibition": 33}
{"chemical-string": "COc1cccc(COc2cc(-n3cnc4ccccc43)sc2C(N)=O)c1", "measured-on": "Serine/threonine-protein kinase Chk1 (Homo sapiens)", "display-unit": "%", "inhibition": -2.21}
{"chemical-string": "NC(=O)c1sc(-n2cnc3cc(C(F)(F)F)ccc32)cc1OCc1ccccc1Br", "measured-on": "Serine/threonine-protein kinase Chk1 (Homo sapiens)", "display-unit": "%", "inhibition": 0.96}

## Task Look up inhibition: NS(=O)(=O)c1ccc(-c2ccc3c(NC(=O)C4CC4)n[nH]c3c2)cc1
## Result 4.16

## Task Look up inhibition: CCn1c(-c2nonc2N)nc2c(C#CC(C)(C)O)ncc(OC[C@@H]3CCCN3)c21
## Result 2.95

* * *

# measured-on: Tyrosine-protein kinase Lyn (Homo sapiens) (UniProt P07948)
# Sequence (P07948 2-512 limits assumed): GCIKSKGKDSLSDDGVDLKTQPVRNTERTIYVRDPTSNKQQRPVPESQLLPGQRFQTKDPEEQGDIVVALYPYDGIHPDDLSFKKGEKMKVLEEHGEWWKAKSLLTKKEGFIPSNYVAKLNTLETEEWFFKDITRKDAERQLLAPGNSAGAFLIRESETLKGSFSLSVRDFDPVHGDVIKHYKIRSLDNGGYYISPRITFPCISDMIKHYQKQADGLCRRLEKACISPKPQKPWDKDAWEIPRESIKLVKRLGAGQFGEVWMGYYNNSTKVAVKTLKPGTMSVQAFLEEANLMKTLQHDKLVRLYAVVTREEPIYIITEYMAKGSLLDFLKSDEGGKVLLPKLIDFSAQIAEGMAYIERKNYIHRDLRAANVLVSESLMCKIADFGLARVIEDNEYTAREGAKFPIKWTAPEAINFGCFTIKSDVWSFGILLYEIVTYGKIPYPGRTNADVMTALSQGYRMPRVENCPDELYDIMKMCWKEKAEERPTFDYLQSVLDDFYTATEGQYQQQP
# assay-setup: at 0.1 µM
# Description: GSK_PKIS: LYN B (splice variant) mean inhibition at 0.1 uM [Nanosyn]
The reader will find reported inhibition values listed item by item below.
Write down the numeric answer in % and omit the unit.

{"chemical-string": "COc1cc2c(cc1Nc1nc(Nc3ccsc3C(N)=O)c3cc[nH]c3n1)N(C(=O)CN(C)C)CCC2", "measured-on": "Tyrosine-protein kinase Lyn (Homo sapiens) (UniProt P07948)", "inhibition, %": 2.54}
{"chemical-string": "NS(=O)(=O)c1ccc(N/C=C2\\C(=O)Nc3ccc4ncsc4c32)cc1", "measured-on": "Tyrosine-protein kinase Lyn (Homo sapiens) (UniProt P07948)", "inhibition, %": 2.87}

Now take the following molecule into account.
## Task Look up inhibition: Cc1cc(-c2ccco2)cc(C)c1/C=C/c1cncc(-c2nn[nH]n2)c1
## Result 2.99

* * *

# measured-on: Phosphatidylinositol 4,5-bisphosphate 3-kinase catalytic subunit alpha isoform (Homo sapiens) (UniProt P42336)
# Sequence (P42336 whole entry, canonical isoform): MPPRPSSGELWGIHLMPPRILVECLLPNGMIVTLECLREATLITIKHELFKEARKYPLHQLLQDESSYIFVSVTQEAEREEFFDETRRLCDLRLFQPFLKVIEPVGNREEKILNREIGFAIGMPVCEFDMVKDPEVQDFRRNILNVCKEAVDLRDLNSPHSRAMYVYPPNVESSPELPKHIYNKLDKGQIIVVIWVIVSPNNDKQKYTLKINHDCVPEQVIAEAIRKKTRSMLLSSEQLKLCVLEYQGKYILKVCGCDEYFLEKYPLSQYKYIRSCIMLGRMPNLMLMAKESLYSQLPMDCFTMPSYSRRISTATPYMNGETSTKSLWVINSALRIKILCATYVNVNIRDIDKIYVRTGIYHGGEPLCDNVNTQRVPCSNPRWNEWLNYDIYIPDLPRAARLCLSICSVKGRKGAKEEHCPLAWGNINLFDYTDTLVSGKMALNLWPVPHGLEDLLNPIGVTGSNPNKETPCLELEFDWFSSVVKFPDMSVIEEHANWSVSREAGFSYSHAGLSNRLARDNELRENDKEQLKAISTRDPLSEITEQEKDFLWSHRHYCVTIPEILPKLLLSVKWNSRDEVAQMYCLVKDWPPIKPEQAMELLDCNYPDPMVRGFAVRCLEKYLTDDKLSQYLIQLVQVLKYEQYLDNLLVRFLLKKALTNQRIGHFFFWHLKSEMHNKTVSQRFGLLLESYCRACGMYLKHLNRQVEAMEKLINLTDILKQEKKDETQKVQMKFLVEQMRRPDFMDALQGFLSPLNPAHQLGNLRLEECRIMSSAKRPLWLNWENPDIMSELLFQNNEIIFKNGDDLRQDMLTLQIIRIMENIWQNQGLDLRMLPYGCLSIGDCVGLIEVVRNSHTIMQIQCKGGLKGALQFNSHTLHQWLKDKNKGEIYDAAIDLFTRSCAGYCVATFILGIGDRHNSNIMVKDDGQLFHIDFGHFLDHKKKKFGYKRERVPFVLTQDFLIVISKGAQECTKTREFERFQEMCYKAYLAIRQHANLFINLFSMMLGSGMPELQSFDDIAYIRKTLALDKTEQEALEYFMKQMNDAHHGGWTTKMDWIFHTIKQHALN
# assay-setup: at 1 µM
measured-endpoint: inhibition (%)
Write down the numeric answer in % and omit the unit.

{"chemical-string": "CCn1c(-c2nonc2N)nc2c(C#CC(C)(C)O)ncc(OCC3CCNCC3)c21", "measured-endpoint": "inhibition", "result-value": 19.5}

## Task Look up inhibition: CCn1c(-c2nonc2N)nc2c(C#CC(C)(C)O)ncc(OC[C@@H]3CCCN3)c21
## Result 0.24

## Task Look up inhibition: COc1cccc(-n2ncc3c(N/N=C/c4ccncc4)ncnc32)c1
## Result 7.14

## Task Look up inhibition: Cc1cc(-c2ccco2)cc(C)c1/C=C/c1cncc(-c2nn[nH]n2)c1
## Result 6.64

## Task Look up inhibition: COc1cccc(COc2cc(-n3cnc4ccccc43)sc2C(N)=O)c1
## Result 1.56

## Task Look up inhibition: COc1cc2c(cc1Nc1nc(Nc3ccsc3C(N)=O)c3cc[nH]c3n1)N(C(=O)CN(C)C)CCC2
## Result -1

## Task Look up inhibition: Nc1nonc1-c1nc2cnccc2n1C1CCCCC1
## Result -3.54
